- System: RS4;11 lymphoblast cells
- Protocol: Cell viability assay (Promega MTS), dark or pulsed irradiation
- Format: cell-based, human
- Measurement Conditions: Homo sapiens, RS4-11, light or radiation study; 72 h, irradiated with 390 nm light pulses (100 ms every 10 s)
Assay Metric: EC50

>>> observed_value("COc1cc(/N=N/c2cccc3c2CN(C2CCC(=O)NC2=O)C3=O)cc(OC)c1OCC(=O)NCCCCNC(=O)C[C@@H]1N=C(c2ccc(Cl)cc2)c2c(sc(C)c2C)-n2c(C)nnc21 (stereo partly shown)")
"88.5 nM"

meta.source: patent US20220143183A1
